Cited source: PubChem BioAssay AID2060612

test system: 565232-114-T-J1-PDC complex spheroid viability; experiment: Anticancer human tumor 565232-114-T-J1-PDC patient-derived bladder carcinoma cell line growth inhibition [CLK]; details: second compound 0.0316 µM; first compound 0.00316 µM; stronger effect = lower value
recorded.metric: viability, T/C (%)
Numeric answer only, unit % assumed.

Solved entries:
CCN1CCN(Cc2ccc(Nc3ncc(F)c(-c4cc(F)c5nc(C)n(C(C)C)c5c4)n3)nc2)CC1 + CN1CCN(c2cc(C(=O)Nc3cc4cc(-c5cnn(C)c5)ccc4cn3)ccn2)CC1	116
CCc1c2c(nc3ccc(O)cc13)-c1cc3c(c(=O)n1C2)COC(=O)[C@]3(O)CC + CN1CCN(c2cc(C(=O)Nc3cc4cc(-c5cnn(C)c5)ccc4cn3)ccn2)CC1	96.6

Now for a further compound.
[ask] Form: Entry = Cn1ncnc1[C@H]1c2n[nH]c(=O)c3cc(F)cc(c23)N[C@@H]1c1ccc(F)cc1 + CN1CCN(c2cc(C(=O)Nc3cc4cc(-c5cnn(C)c5)ccc4cn3)ccn2)CC1 | System = 565232-114-T-J1-PDC complex spheroid viability | viability, T/C = ____
[reply] 91.5

----------
Tested on: 565232-114-T-J1-PDC complex spheroid viability
Assay: Anticancer human tumor 565232-114-T-J1-PDC cell line growth inhibition [CLK];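 also: spheroids exposed to compounds for 7 days before readout; 100% = DMSO vehicle wells with luminescence normalized to vehicle control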
Details: second compound 0.0316 µM; first compound 0.000949 µM; stronger effect = lower value
From the text: A high-throughput screen of multi-cell type tumor spheroids was designed to identify active combinations of […] and targeted small molecules. Complex spheroids include a stromal component modeled by human endothelial cells (HUVEC) and fibroblasts modeled by human mesenchymal stem cells (MSCs). […] Compounds. […] If the clinical Cmax for an agent had not been determined, the highest concentration tested was 10 microM. […]
In this section, each of the compounds is paired with its reported viability, T/C.
Numeric answer only, unit % assumed.

C=CC(=O)Nc1cc(Nc2nccc(-c3cn(C)c4ccccc34)n2)c(OC)cc1N(C)CCN(C)C + CNC(=O)c1ccc(Nc2nc(OC3CCCC3)c3c(-c4ccc5nc(C)oc5c4)c[nH]c3n2)c(OC)c1	84.3
CC(C)CC(NC(=O)C(Cc1ccccc1)NC(=O)c1cnccn1)B(O)O (centres undefined) + CN1CCN(c2cc(C(=O)Nc3cc4cc(-c5cnn(C)c5)ccc4cn3)ccn2)CC1	120
C=CC(=O)Nc1cc(Nc2nccc(-c3cn(C)c4ccccc34)n2)c(OC)cc1N(C)CCN(C)C + CN1CCN(c2cc(C(=O)Nc3cc4cc(-c5cnn(C)c5)ccc4cn3)ccn2)CC1	104

[ask] What does the record list as viability, T/C for CC(C)CC(NC(=O)C(Cc1ccccc1)NC(=O)c1cnccn1)B(O)O (centres undefined) + CNC(=O)c1ccc(Nc2nc(OC3CCCC3)c3c(-c4ccc5nc(C)oc5c4)c[nH]c3n2)c(OC)c1 ?
[reply] 81

----------
system: 565232-114-T-J1-PDC complex spheroid viability; experiment: Anticancer human tumor 565232-114-T-J1-PDC cell line growth inhibition [CLK]; details: second compound 3.16 µM; first compound 0.1 µM; active = viability on the fitted dose curve at most 10% of control; inactive = the rest;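 also: spheroids exposed to compounds for 7 days before readout; 100% = DMSO vehicle wells with luminescence normalized to vehicle control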
Field 'call' accepts active, inactive

Completed entries (count: 8):
COc1ccc([C@@H](O)c2cc(-c3ncnc4cc(N5CCOCC5)ccc34)c(F)cc2Cl)nn1 + CN1CCN(c2cc(C(=O)Nc3cc4cc(-c5cnn(C)c5)ccc4cn3)ccn2)CC1	active
CC1(C)CCC(CN2CCN(c3ccc(C(=O)NS(=O)(=O)c4ccc(NCC5CCOCC5)c([N+](=O)[O-])c4)c(Oc4cnc5[nH]ccc5c4)c3)CC2)=C(c2ccc(Cl)cc2)C1 + CN1CCN(c2cc(C(=O)Nc3cc4cc(-c5cnn(C)c5)ccc4cn3)ccn2)CC1	active
CC1COCCN1c1cc(C2(S(C)(=N)=O)CC2)nc(-c2ccnc3[nH]ccc23)n1 (stereo not given) + CN1CCN(c2cc(C(=O)Nc3cc4cc(-c5cnn(C)c5)ccc4cn3)ccn2)CC1	active
CC(CO)NC(=O)c1cc(-c2ccc(Cl)cc2)nn(-c2cnn(C)c2)c1=O (stereo not given) + CNC(=O)c1ccc(Nc2nc(OC3CCCC3)c3c(-c4ccc5nc(C)oc5c4)c[nH]c3n2)c(OC)c1	inactive
Nc1ccccc1NC(=O)c1ccc(CNC(=O)OCc2cccnc2)cc1 + CN1CCN(c2cc(C(=O)Nc3cc4cc(-c5cnn(C)c5)ccc4cn3)ccn2)CC1	active
CC(=O)O[C@H]1C(=O)[C@@]2(C)[C@H]([C@H](OC(=O)c3ccccc3)[C@]3(O)C[C@H](OC(=O)[C@H](O)[C@@H](NC(=O)c4ccccc4)c4ccccc4)C(C)=C1C3(C)C)[C@]1(OC(C)=O)CO[C@@H]1C[C@@H]2O + CN1CCN(c2cc(C(=O)Nc3cc4cc(-c5cnn(C)c5)ccc4cn3)ccn2)CC1	active
Cn1ncnc1[C@H]1c2n[nH]c(=O)c3cc(F)cc(c23)N[C@@H]1c1ccc(F)cc1 + CNC(=O)c1ccc(Nc2nc(OC3CCCC3)c3c(-c4ccc5nc(C)oc5c4)c[nH]c3n2)c(OC)c1	inactive
COc1cccc2c1C(=O)c1c(O)c3c(c(O)c1C2=O)CC(O)(C(=O)CO)CC3OC1CC(N)C(O)C(C)O1 (stereo not given) + CN1CCN(c2cc(C(=O)Nc3cc4cc(-c5cnn(C)c5)ccc4cn3)ccn2)CC1	active

[ask] Fill in: this test's call for O=C(c1cc(Cc2n[nH]c(=O)c3ccccc23)ccc1F)N1CCN(C(=O)C2CC2)CC1 + CNC(=O)c1ccc(Nc2nc(OC3CCCC3)c3c(-c4ccc5nc(C)oc5c4)c[nH]c3n2)c(OC)c1 is ___
[reply] inactive

[ask] Now the molecule Nc1ccn(C2OC(CO)C(O)C2(F)F)c(=O)n1 (stereo not given) + CN1CCN(c2cc(C(=O)Nc3cc4cc(-c5cnn(C)c5)ccc4cn3)ccn2)CC1
[reply] active

[ask] Now the molecule O=c1[nH]cc(F)c(=O)[nH]1 + CN1CCN(c2cc(C(=O)Nc3cc4cc(-c5cnn(C)c5)ccc4cn3)ccn2)CC1
[reply] active

[ask] Now the molecule CCCS(=O)(=O)Nc1ccc(F)c(C(=O)c2c[nH]c3ncc(-c4ccc(Cl)cc4)cc23)c1F + CNC(=O)c1ccc(Nc2nc(OC3CCCC3)c3c(-c4ccc5nc(C)oc5c4)c[nH]c3n2)c(OC)c1
[reply] inactive

[ask] Now the molecule CCN1CCN(Cc2ccc(Nc3ncc(F)c(-c4cc(F)c5nc(C)n(C(C)C)c5c4)n3)nc2)CC1 + CN1CCN(c2cc(C(=O)Nc3cc4cc(-c5cnn(C)c5)ccc4cn3)ccn2)CC1
[reply] active
